# run.description: qHTS assay to identify small molecule agonists of H2AX - cell viability counter screen (AID 1224847); note: nearly all actives have a fitted effect of over 30% in size
# recorded.conditions: CHO-K1 viability, CellTiter-Glo luminescence, 3 h; series mostly up to 70.9 µM
Records with an inconclusive call do not appear. Calls of active or inactive are those of the source. Calls come from the whole dose curve.
Return exactly one item of true (1) (active), false (0) (inactive)

The examples below pair each entry with its known result.
>  <compound>
CCC1=C[C@@H]2CN(C1)Cc1c([nH]c3ccccc13)[C@@](C(=O)OC)(c1cc3c(cc1OC)N(C)[C@H]1[C@@](O)(C(=O)OC)[C@H](OC(C)=O)[C@]4(CC)C=CCN5CC[C@]31[C@@H]54)C2

>  <assigned.class>
false (0)

$$$$
>  <compound>
Cc1ccc(O)c(C(C)(C)C)c1

>  <assigned.class>
true (1)

$$$$
>  <compound>
OC1(c2ccc(Cl)c(C(F)(F)F)c2)CCN(CCCC(c2ccc(F)cc2)c2ccc(F)cc2)CC1

>  <assigned.class>
true (1)

$$$$
>  <compound>
CCCC(C)c1ccccc1O (stereo not given)

>  <assigned.class>
true (1)

$$$$
>  <compound>
CNc1ccc(O)cc1

>  <assigned.class>
true (1)

$$$$

INPUT: Just curious, what result did CCc1cc(SCc2sc(-c3ccc(C(F)(F)F)cc3)nc2CN2CCN(c3ccc(OC)cc3)CC2)ccc1OCC(=O)O get here?
OUTPUT: true (1)

INPUT: Just curious, what result did C[n+]1ccn(Cc2ccccc2)c1 get here?
OUTPUT: false (0)

###

# run.description: A CellTox Green Cytotoxicity Assay to monitor cytotoxicity in HepG2 cells - 0 hour (AID 1224882); note: % is set by controls: 0 for no effect and ±100 for the full control effect; nearly all actives have a fitted effect of over 35% in size
# recorded.conditions: CellTox Green fluorescence; series mostly up to 76.8 µM
The source made the active and inactive calls. The call rests on the fitted dose curve; in most records, active means well fitted activation curve with a large enough effect in the repeat runs; inconclusive means weak or mixed curves; inactive means flat fitted curve, though single readings scatter.
metric: cytotoxicity

>  <compound>
C[n+]1cc2c3c(ccc2c2ccc4cc5c(cc4c21)OCO5)OCO3

>  <metric>
cytotoxicity

>  <value.observed>
-26.7% [at 15.8 µM] (inactive)

$$$$
>  <compound>
O=C(OC[C@H]1O[C@@H](OC(=O)c2cc(O)c(O)c(OC(=O)c3cc(O)c(O)c(O)c3)c2)[C@H](OC(=O)c2cc(O)c(O)c(OC(=O)c3cc(O)c(O)c(O)c3)c2)[C@@H](OC(=O)c2cc(O)c(O)c(OC(=O)c3cc(O)c(O)c(O)c3)c2)[C@@H]1OC(=O)c1cc(O)c(O)c(OC(=O)c2cc(O)c(O)c(O)c2)c1)c1cc(O)c(O)c(OC(=O)c2cc(O)c(O)c(O)c2)c1

>  <metric>
cytotoxicity

>  <value.observed>
-19.7% [at 15.8 µM] (inactive)

$$$$
>  <compound>
CCN1/C(=C/C=C/c2sc3ccccc3[n+]2CC)Sc2ccccc21

>  <metric>
cytotoxicity

>  <value.observed>
-4.71% [at 15.8 µM] (inactive)

$$$$

Now let's try a different one.
INPUT: Specify cytotoxicity for CC(NN)c1ccccc1 (centres undefined) and stop.
OUTPUT: -2.26% [at 15.8 µM] (inactive)

###

# run.description: A CellTox Green Cytotoxicity Assay to monitor cytotoxicity in HepG2 cells - 24 hour (AID 1224878); note: nearly all actives have a fitted effect of over 45% in size; for Cytotoxicity: % is set by controls: 0 for no effect and ±100 for the full control effect
# recorded.conditions: CellTox Green fluorescence; series mostly up to 76.8 µM
Inconclusive results are not listed. Activity calls are given as the source filed them. Calls follow the shape of the dose curve; as a rule, active = well fitted activation curve with a large enough effect in the repeat runs; inconclusive = weak or mixed curves; inactive = flat fitted curve, though single readings scatter.
Return exactly one item of TRUE for active, FALSE for inactive

The examples below pair each entry with its known result.
>  <compound>
CCCCCCCCOc1ccccc1C(=O)Nc1ccc(C(=O)OCC[N+](C)(CC)CC)cc1

>  <assigned.class>
TRUE

$$$$
>  <compound>
CCCCCCCCCCCCCCCCCC[N+](C)(C)Cc1ccccc1

>  <assigned.class>
TRUE

$$$$
>  <compound>
COC(=O)c1cc(Cl)ccc1OC

>  <assigned.class>
FALSE

$$$$

INPUT: Just curious, what result did O=C(Oc1ccccc1)c1ccccc1C(=O)Oc1ccccc1 get here?
OUTPUT: FALSE

INPUT: Just curious, what result did O=C(Nc1cccc([N+](=O)[O-])c1)c1cc2ccccc2cc1O get here?
OUTPUT: FALSE

INPUT: Just curious, what result did CCCCCOc1ccccc1/C(=C\SC)n1ccnc1 get here?
OUTPUT: FALSE

###

# run.description: qHTS assay to identify small molecule agonists of the AP-1 signaling pathway - cell viability counter screen (AID 1159525); note: nearly all actives have a fitted effect of over 55% in size
# recorded.conditions: ME-180 (cervical carcinoma) AP-1-bla cells viability, ATP luminescence, 5 h; series mostly up to 76.8 µM
Results filed as inconclusive are left out. The source made the active and inactive calls. Calls follow the shape of the full dose curve.
Return exactly one item of yes (1) (active), no (0) (inactive)

>  <compound>
CC1(C)CCC(C)(C)c2cc(C(=O)Nc3ccc(C(=O)O)cc3)ccc21

>  <assigned.class>
no (0)

$$$$
>  <compound>
CC(C)c1ccc2c(c1)CC[C@H]1[C@](C)(CN)CCC[C@]21C

>  <assigned.class>
yes (1)

$$$$
>  <compound>
CCCCCCCCCCCCCCCCCC[N+](C)(C)Cc1ccccc1

>  <assigned.class>
yes (1)

$$$$
>  <compound>
O=C(c1ccc(O)cc1O)c1ccc(O)cc1O

>  <assigned.class>
no (0)

$$$$
>  <compound>
CCCCCCCCCCCCc1ccc(O)cc1

>  <assigned.class>
yes (1)

$$$$
>  <compound>
NC(=O)NS(=O)(=O)c1ccc(N)cc1

>  <assigned.class>
no (0)

$$$$

INPUT: Just curious, what result did C[C@H](CCC(=O)O)[C@H]1CC[C@H]2[C@@H]3CC[C@@H]4C[C@H](O)CC[C@]4(C)[C@H]3CC[C@]12C get here?
OUTPUT: yes (1)

INPUT: Just curious, what result did [Cl][Au]([Cl])[Cl] get here?
OUTPUT: no (0)

###

# run.description: qHTS assay to identify small molecule antagonists of the sonic hedgehog signaling (Shh) pathway (AID 1259369); note: nearly all actives have a fitted effect of over 45% in size
# recorded.conditions: NIH/3T3 Gli1-Luc reporter, Shh antagonist, luminescence 24 h; series mostly up to 92.4 µM
Records with an inconclusive call do not appear. The source made the active and inactive calls. The call rests on the fitted dose curve.
Return exactly one item of class 1 = active, class 0 = inactive

>  <compound>
Fc1ccc(C(c2ccc(F)cc2)N2CCN(C/C=C/c3ccccc3)CC2)cc1

>  <assigned.class>
class 0

$$$$
>  <compound>
c1cc(C(c2ccc(OCC3CO3)cc2)c2ccc(OCC3CO3)cc2)ccc1OCC1CO1 (stereo not drawn)

>  <assigned.class>
class 1

$$$$
>  <compound>
Cc1oc(-c2ccccc2)nc1CCC(=O)c1ccc(CC2SC(=O)NC2=O)cc1 (stereo not drawn)

>  <assigned.class>
class 0

$$$$
>  <compound>
CN1CCN(CCC(=O)N2c3ccccc3Sc3ccc(C(F)(F)F)cc32)CC1

>  <assigned.class>
class 1

$$$$
>  <compound>
CC1=C(/C=C/C(C)=C/C=C/C(C)=C/C=O)C(C)(C)CCC1

>  <assigned.class>
class 1

$$$$
>  <compound>
ON=C1CCCC1

>  <assigned.class>
class 0

$$$$
>  <compound>
NC(=O)NS(=O)(=O)c1ccc(N)cc1

>  <assigned.class>
class 0

$$$$
>  <compound>
O=[N+]([O-])c1cc(Cl)c(Cl)c(Cl)c1Cl

>  <assigned.class>
class 0

$$$$

INPUT: Just curious, what result did Nc1c(Cl)cc(Cl)cc1Cl get here?
OUTPUT: class 0

INPUT: Just curious, what result did CO[Si](CCCNc1ccccc1)(OC)OC get here?
OUTPUT: class 0

INPUT: Just curious, what result did Cc1cccc(CN2CCN(C(c3ccccc3)c3ccc(Cl)cc3)CC2)c1 (stereo not drawn) get here?
OUTPUT: class 0

###

# assay.target: Estrogen receptor (Homo sapiens)
# run.description: qHTS assay to identify small molecule agonists of the estrogen receptor alpha (ER-alpha) signaling pathway using the BG1 cell line (AID 743079); note: % is set by controls: 0 for no effect and ±100 for the full control effect; nearly all actives have a fitted effect of over 20% in size
# recorded.conditions: BG1Luc4E2 cells, ERE-luciferase agonist, 22 h; at 95 µM (top of the series)
Inconclusive results are not listed.
Outcome label depends on activation relative to 10%: at/above gives yes (1), below gives no (0).

The examples below pair each entry with its known result.
>  <smi>
CCC(N)(CO)CO

>  <assay.target>
Estrogen receptor (Homo sapiens)

>  <assigned.class>
no (0)

$$$$
>  <smi>
Cc1cccc2c1cc1ccc3cccc4ccc2c1c34

>  <assay.target>
Estrogen receptor (Homo sapiens)

>  <assigned.class>
yes (1)

$$$$
>  <smi>
N#CSc1ccc(N)c([N+](=O)[O-])c1

>  <assay.target>
Estrogen receptor (Homo sapiens)

>  <assigned.class>
no (0)

$$$$
>  <smi>
O=C1C=CC(=O)N1

>  <assay.target>
Estrogen receptor (Homo sapiens)

>  <assigned.class>
no (0)

$$$$
>  <smi>
ON=C1CCCC1

>  <assay.target>
Estrogen receptor (Homo sapiens)

>  <assigned.class>
yes (1)

$$$$

INPUT: Decide: is the reported value of activation for NNc1nc(-c2ccccc2)cs1 equal to or greater than 10%?
OUTPUT: no (0)
